These data points were gathered from patent US20110262445A1.

Listed binders paired with reported kon
Target: T1, human IL-23 (human, UniProt P29460 23-328; Q9NPF7 20-189)
T1 construct: Recombinant (Ebioscience); HIS-tagged in flow cytometry, biotinylated in some assays; also called hIL-23; rhIL-23
T1 sequence 1: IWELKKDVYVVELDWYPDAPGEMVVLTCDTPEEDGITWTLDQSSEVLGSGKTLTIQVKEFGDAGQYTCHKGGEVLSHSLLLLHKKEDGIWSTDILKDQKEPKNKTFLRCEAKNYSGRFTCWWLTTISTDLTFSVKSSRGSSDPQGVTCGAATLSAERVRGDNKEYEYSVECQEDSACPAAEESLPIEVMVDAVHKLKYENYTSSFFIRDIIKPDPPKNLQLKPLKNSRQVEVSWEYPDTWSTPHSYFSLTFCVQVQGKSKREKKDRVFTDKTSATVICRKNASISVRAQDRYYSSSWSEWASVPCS
T1 sequence 2: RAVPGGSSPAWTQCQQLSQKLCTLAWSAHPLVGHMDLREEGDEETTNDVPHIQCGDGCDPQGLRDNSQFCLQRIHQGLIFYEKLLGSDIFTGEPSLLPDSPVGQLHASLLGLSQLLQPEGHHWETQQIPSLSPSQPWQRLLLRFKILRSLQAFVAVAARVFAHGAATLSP
Experiment: SPR, single 81 nM analyte, scFv via FLAG
measured-parameter: kon (M⁻¹ s⁻¹)

[[record]]
binder = "scFv combo. # 14 (scFv, scFv-80 with VH F29L, Q43R; VL I55T; not shown: proprietary C-terminal FLAG tag) scFv: QVQLVQSGAEVKKPGASVKVSCKASGYTLTDYYLHWVRQAPGRGLEWMGWIDPENGDTEYAPKFQGRVTMTTDTSTSTAYMELRSLRSDDTAVYYCNANKELRYFDVWGQGTMVTVSSGGGGSGGGGSGGGGSEIVMTQSPATLSVSPGERATLSCRASQSISINLHWYQQKPGQAPRLLIYFASQSTSGIPARFSGSGSGTEFTLTISSLQSEDFAVYYCQQSNSFPLTFGGGTKVEIKR"
measured_parameter = "kon"
numeric_readout = 270000

[[record]]
binder = "scFv combo. # 1 (scFv, scFv-80 with VH Q43R, Y59H; VL I55T; not shown: proprietary C-terminal FLAG tag) scFv: QVQLVQSGAEVKKPGASVKVSCKASGYTFTDYYLHWVRQAPGRGLEWMGWIDPENGDTEHAPKFQGRVTMTTDTSTSTAYMELRSLRSDDTAVYYCNANKELRYFDVWGQGTMVTVSSGGGGSGGGGSGGGGSEIVMTQSPATLSVSPGERATLSCRASQSISINLHWYQQKPGQAPRLLIYFASQSTSGIPARFSGSGSGTEFTLTISSLQSEDFAVYYCQQSNSFPLTFGGGTKVEIKR"
measured_parameter = "kon"
numeric_readout = 230000

[[record]]
binder = "scFv combo. # 12 (scFv, scFv-80 with VH T28A, Y59S, T68S; not shown: proprietary C-terminal FLAG tag) scFv: QVQLVQSGAEVKKPGASVKVSCKASGYAFTDYYLHWVRQAPGQGLEWMGWIDPENGDTESAPKFQGRVSMTTDTSTSTAYMELRSLRSDDTAVYYCNANKELRYFDVWGQGTMVTVSSGGGGSGGGGSGGGGSEIVMTQSPATLSVSPGERATLSCRASQSISINLHWYQQKPGQAPRLLIYFASQSISGIPARFSGSGSGTEFTLTISSLQSEDFAVYYCQQSNSFPLTFGGGTKVEIKR"
measured_parameter = "kon"
numeric_readout = 220000

[[record]]
binder = "scFv combo. # 9 (scFv, scFv-80 with VH Q43R, Y59S; VL I55T; not shown: proprietary C-terminal FLAG tag) scFv: QVQLVQSGAEVKKPGASVKVSCKASGYTFTDYYLHWVRQAPGRGLEWMGWIDPENGDTESAPKFQGRVTMTTDTSTSTAYMELRSLRSDDTAVYYCNANKELRYFDVWGQGTMVTVSSGGGGSGGGGSGGGGSEIVMTQSPATLSVSPGERATLSCRASQSISINLHWYQQKPGQAPRLLIYFASQSTSGIPARFSGSGSGTEFTLTISSLQSEDFAVYYCQQSNSFPLTFGGGTKVEIKR"
measured_parameter = "kon"
numeric_readout = 220000

